Here, each record is paired with measured kobs data.
target: AmpC SBL from Escherichia coli (AmpCEC) (Escherichia coli); construct: made in house; experiment: Steady-state competitive inhibition kinetics of AmpCEC with fluorescent substrate FC-5 (kobs, Kiapp, k2/K); assay type: biochemical; details: [DBO] 0.16 µM
Respond using a number only.

Worked set:
Field kobs (entry O=C(NNC(=O)[C@@H]1CC[C@@H]2CN1C(=O)N2OS(=O)(=O)O)[C@@H]1CCCNC1 ) reads 0.183

Field kobs (entry NCCONC(=O)[C@@H]1CC[C@@H]2CN1C(=O)N2OS(=O)(=O)O ) reads 0.142

Field kobs (entry O=C(NC1CCNCC1)[C@@H]1CC[C@@H]2CN1C(=O)N2OS(=O)(=O)O ) reads 0.138

Please find the next molecule below.
Field kobs (entry NC(=O)[C@@H]1CC[C@@H]2CN1C(=O)N2OS(=O)(=O)O ) reads 0.134

----------
Here, each record is paired with measured IC50 data.
target: AmpC SBL from Escherichia coli (AmpCEC) (Escherichia coli, UniProt P00811); construct: made in house; assay: AmpCEC inhibition pIC50 with varied preincubation time and pH (FC-5); type: biochemical; settings: pIC50, 0 min preincubation, pH 7.5, 500 pM AmpCEC, 5 μM FC-5
Sequence (P00811 20-377): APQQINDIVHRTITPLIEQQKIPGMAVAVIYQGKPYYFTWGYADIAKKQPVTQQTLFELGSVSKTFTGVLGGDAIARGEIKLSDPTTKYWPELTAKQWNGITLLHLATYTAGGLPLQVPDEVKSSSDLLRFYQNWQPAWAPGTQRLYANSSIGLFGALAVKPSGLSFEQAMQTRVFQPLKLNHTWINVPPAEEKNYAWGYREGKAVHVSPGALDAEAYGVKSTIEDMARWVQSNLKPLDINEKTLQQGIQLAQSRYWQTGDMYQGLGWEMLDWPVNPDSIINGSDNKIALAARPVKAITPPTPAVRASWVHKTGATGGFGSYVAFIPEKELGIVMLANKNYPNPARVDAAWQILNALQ
Quick note: give the figure in nM, leave out the unit.

Worked set:
Field IC50 (entry O=C(NC1CCNCC1)[C@@H]1CC[C@@H]2CN1C(=O)N2OS(=O)(=O)O ) reads 245

Field IC50 (entry NCCONC(=O)[C@@H]1CC[C@@H]2CN1C(=O)N2OS(=O)(=O)O ) reads 178

Please find the next compound below.
Field IC50 (entry O=C(NNC(=O)[C@@H]1CC[C@@H]2CN1C(=O)N2OS(=O)(=O)O)[C@@H]1CCCNC1 ) reads 25.1

----------
biological target: AmpC SBL from Escherichia coli (AmpCEC) (Escherichia coli); construct: made in house; assay: AmpCEC inhibition pIC50 with varied preincubation time and pH (FC-5); assay type: biochemical; conditions: pIC50, 360 min preincubation, pH 7.0
Here, each record is paired with measured pIC50 data.
Answer as the number alone; pIC50 is minus log10 of concentration in mol/L.

Field pIC50 (entry O=C(NC1CCNCC1)[C@@H]1CC[C@@H]2CN1C(=O)N2OS(=O)(=O)O ) reads 8.38

More entries:
Field pIC50 (entry O=C(NNC(=O)[C@@H]1CC[C@@H]2CN1C(=O)N2OS(=O)(=O)O)[C@@H]1CCCNC1 ) reads 8.28

Field pIC50 (entry NCCONC(=O)[C@@H]1CC[C@@H]2CN1C(=O)N2OS(=O)(=O)O ) reads 8.19

----------
Here, each record is paired with measured IC50 data.
molecular target: AmpC SBL from Escherichia coli (AmpCEC) (Escherichia coli, UniProt P00811); construct: made in house; assay: AmpCEC inhibition pIC50 with varied preincubation time and pH (FC-5); type: biochemical; conditions: pIC50, 360 min preincubation, pH 8.0
Quick note: give the figure in nM, leave out the unit.

Worked set:
Field IC50 (entry NCCONC(=O)[C@@H]1CC[C@@H]2CN1C(=O)N2OS(=O)(=O)O ) reads 5.13

Field IC50 (entry O=C(NNC(=O)[C@@H]1CC[C@@H]2CN1C(=O)N2OS(=O)(=O)O)[C@@H]1CCCNC1 ) reads 4.37

More entries:
Field IC50 (entry O=C(NC1CCNCC1)[C@@H]1CC[C@@H]2CN1C(=O)N2OS(=O)(=O)O ) reads 10.5

----------
Here, each record is paired with measured kobs data.
molecular target: AmpC SBL from Escherichia coli (AmpCEC) (Escherichia coli); construct: made in house; assay: Steady-state competitive inhibition kinetics of AmpCEC with fluorescent substrate FC-5 (kobs, Kiapp, k2/K); assay type: biochemical; details: [DBO] 0.63 µM
Respond using a number only.

Field kobs (entry O=C(NNC(=O)[C@@H]1CC[C@@H]2CN1C(=O)N2OS(=O)(=O)O)[C@@H]1CCCNC1 ) reads 0.357

Field kobs (entry O=C(NC1CCNCC1)[C@@H]1CC[C@@H]2CN1C(=O)N2OS(=O)(=O)O ) reads 0.143

Field kobs (entry NCCONC(=O)[C@@H]1CC[C@@H]2CN1C(=O)N2OS(=O)(=O)O ) reads 0.153

Field kobs (entry NC(=O)[C@@H]1CC[C@@H]2CN1C(=O)N2OS(=O)(=O)O ) reads 0.144

----------
target: AmpC SBL from Escherichia coli (AmpCEC) (Escherichia coli, UniProt P00811); construct: made in house; experiment: AmpCEC inhibition pIC50 with varied preincubation time and pH (FC-5); format: biochemical; conditions: pIC50, 0 min preincubation, pH 7.0
Here, each record is paired with measured IC50 data.
Quick note: give the figure in nM, leave out the unit.

Worked set:
Field IC50 (entry NCCONC(=O)[C@@H]1CC[C@@H]2CN1C(=O)N2OS(=O)(=O)O ) reads 200

Field IC50 (entry O=C(NNC(=O)[C@@H]1CC[C@@H]2CN1C(=O)N2OS(=O)(=O)O)[C@@H]1CCCNC1 ) reads 34.7

Please find the next compound below.
Field IC50 (entry O=C(NC1CCNCC1)[C@@H]1CC[C@@H]2CN1C(=O)N2OS(=O)(=O)O ) reads 166

----------
target: AmpC SBL from Escherichia coli (AmpCEC) (Escherichia coli, UniProt P00811); construct: made in house; assay: AmpCEC inhibition pIC50 with varied preincubation time and pH (FC-5); type: biochemical; details: pIC50, 60 min preincubation, pH 7.5
assay endpoint: IC50 (µM)
Quick note: give the figure in µM, leave out the unit.

Worked set:
Field IC50 (entry NCCONC(=O)[C@@H]1CC[C@@H]2CN1C(=O)N2OS(=O)(=O)O ) reads 0.0138

Field IC50 (entry O=C(NC1CCNCC1)[C@@H]1CC[C@@H]2CN1C(=O)N2OS(=O)(=O)O ) reads 0.0204

Please find the next compound below.
Field IC50 (entry O=C(NNC(=O)[C@@H]1CC[C@@H]2CN1C(=O)N2OS(=O)(=O)O)[C@@H]1CCCNC1 ) reads 0.00468

----------
Molecular target: AmpC SBL from Escherichia coli (AmpCEC) (Escherichia coli)
Construct: made in house
Assay: AmpCEC inhibition pIC50 with varied preincubation time and pH (FC-5)
Assay type: biochemical
Settings: pIC50, 360 min preincubation, pH 7.5, 500 pM AmpCEC, 5 μM FC-5
Experimental: Assays were performed and analyzed as described previously ([34]). […] Fluorescence was measured using a PHERAstar (BMG Labtech) plate reader, recording emission spectra at an excitation wavelength of 380 nm and emission wavelength of 460 nm. […] Reactions were initiated by addition of AmpCEC and immediately monitored continuously over 30 s. […] Off rates were determined from exponential regression in relation to turnover of no enzyme and no inhibitor controls (Fig. S3c). […]
Here, each record is paired with measured IC50 data.
Quick note: give the figure in nM, leave out the unit.

Worked set:
Field IC50 (entry O=C(NC1CCNCC1)[C@@H]1CC[C@@H]2CN1C(=O)N2OS(=O)(=O)O [REL, relebactam] ) reads 3.89

Field IC50 (entry O=C(NNC(=O)[C@@H]1CC[C@@H]2CN1C(=O)N2OS(=O)(=O)O)[C@@H]1CCCNC1 [ZID, zidebactam] ) reads 3.47

Please find the next compound below.
Field IC50 (entry NCCONC(=O)[C@@H]1CC[C@@H]2CN1C(=O)N2OS(=O)(=O)O [NAC, nacubactam] ) reads 2.95

----------
biological target: AmpC SBL from Escherichia coli (AmpCEC) (Escherichia coli); construct: made in house; test: Steady-state competitive inhibition kinetics of AmpCEC with fluorescent substrate FC-5 (kobs, Kiapp, k2/K); type: biochemical; settings: [DBO] 0.31 µM
Here, each record is paired with measured kobs data.
Respond using a number only.

Worked set:
Field kobs (entry O=C(NC1CCNCC1)[C@@H]1CC[C@@H]2CN1C(=O)N2OS(=O)(=O)O ) reads 0.136

Field kobs (entry NC(=O)[C@@H]1CC[C@@H]2CN1C(=O)N2OS(=O)(=O)O ) reads 0.135

Field kobs (entry NCCONC(=O)[C@@H]1CC[C@@H]2CN1C(=O)N2OS(=O)(=O)O ) reads 0.153

Please find the next compound below.
Field kobs (entry O=C(NNC(=O)[C@@H]1CC[C@@H]2CN1C(=O)N2OS(=O)(=O)O)[C@@H]1CCCNC1 ) reads 0.246

----------
Here, each record is paired with measured IC50 data.
molecular target: AmpC SBL from Escherichia coli (AmpCEC) (Escherichia coli); construct: made in house; assay: AmpCEC inhibition pIC50 with varied preincubation time and pH (FC-5); format: biochemical; conditions: pIC50, 60 min preincubation, pH 8.0

Worked set:
Field IC50 (entry O=C(NNC(=O)[C@@H]1CC[C@@H]2CN1C(=O)N2OS(=O)(=O)O)[C@@H]1CCCNC1 ) reads 0.00389 µM

Field IC50 (entry O=C(NC1CCNCC1)[C@@H]1CC[C@@H]2CN1C(=O)N2OS(=O)(=O)O ) reads 0.0132 µM

Please find the next molecule below.
Field IC50 (entry NCCONC(=O)[C@@H]1CC[C@@H]2CN1C(=O)N2OS(=O)(=O)O ) reads 0.0151 µM
